target: CRBN truncate (318-426) (Homo sapiens (Human), UniProt Q96SW2); experiment: Measurement of molecular interactions using surface plasmon resonance (SPR), Biacore T200; settings: 25° C., immobilized CRBN truncate, upper limit of measurement 200 μM
Sequence (Q96SW2 318-426): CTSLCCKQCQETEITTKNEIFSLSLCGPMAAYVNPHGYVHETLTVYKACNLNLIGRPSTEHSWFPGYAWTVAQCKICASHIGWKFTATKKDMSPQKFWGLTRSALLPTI
Measured Kd accompanies every entry in the list below.

## Input Any idea what Kd came out for CC(C)(C)OC(=O)N(CC1CCCC(=O)NC1=O)c1ccc(F)cc1 (stereo not drawn) [Example 24] on CRBN truncate (318-426) (Homo sapiens (Human), UniProt Q96SW2)?
## Output ≥ 100 µM

----------
biological target: CRBN truncate (318-426) (Homo sapiens (Human), UniProt Q96SW2); assay: Measurement of molecular interactions using surface plasmon resonance (SPR), Biacore T200; settings: 25° C., immobilized CRBN truncate, upper limit of measurement 200 μM
READOUT LABEL: Kd

Consider the following illustrative entries.
molecule="Cc1sc2c(c1C)C(c1ccc(Cl)cc1)=N[C@@H](CC(=O)NCCCCCCCc1cn(C3CCCC(=O)NC3=O)nn1)c1nnc(C)n1-2 (stereo partly drawn)" readout_label=Kd result="≥ 100 µM"
molecule="Cc1sc2c(c1C)C(c1ccc(Cl)cc1)=N[C@@H](CC(=O)NCCCCCCCCNC(=O)c1ccc(OC3CCCC(=O)NC3=O)nc1)c1nnc(C)n1-2 (stereo partly drawn)" readout_label=Kd result="< 50 µM"
molecule="Cc1sc2c(c1C)C(c1ccc(Cl)cc1)=N[C@@H](CC(=O)NCCCCCCc1ccc(C(=O)N3CCN(C4CCCC(=O)NC4=O)C(=O)C3)cc1Cl)c1nnc(C)n1-2 (stereo partly drawn)" readout_label=Kd result="< 50 µM"

## Input Entry Cn1c(=O)n(C2CCCC(=O)NC2=O)c2ccc(C3CCN(CC(=O)OC(C)(C)C)CC3)cc21 (stereo not drawn) : reported Kd = ?
## Output < 50 µM

## Input Please answer likewise for Cc1sc2c(c1C)C(c1ccc(Cl)cc1)=N[C@@H](CC(=O)NCCCCCOc1ccc3nc(N4CC5(CC(=O)N(C6CCC(=O)NC6=O)C5=O)C4)sc3c1)c1nnc(C)n1-2 (stereo partly drawn)
## Output < 50 µM

## Input Please answer likewise for Cc1sc2c(c1C)C(c1ccc(Cl)cc1)=N[C@@H](CC(=O)NCCCCCCCCNC(=O)c1ccc(N3CCC4(CCCC(=O)NC4=O)CC3=O)nc1)c1nnc(C)n1-2 (stereo partly drawn)
## Output ≥ 100 µM

## Input Please answer likewise for CCOC(=O)c1ccc2nc(N3CC4(CC(=O)N(C5CCC(=O)NC5=O)C4)C3)sc2c1 (stereo not drawn)
## Output < 50 µM

## Input Please answer likewise for O=C(O)CCCCCCCc1nn(C2CCCC(=O)NC2=O)c2ccccc12 (stereo not drawn)
## Output ≥ 100 µM

## Input Please answer likewise for Cc1sc2c(c1C)C(c1ccc(Cl)cc1)=N[C@@H](CC(=O)NCCCCCCCCNC(=O)c1cc3c(N4CCC5(CCCC(=O)NC5=O)C4)ncnc3n1C)c1nnc(C)n1-2 (stereo partly drawn)
## Output < 50 µM

## Input Please answer likewise for CC(C)(C)OC(=O)c1cccc(N2CCC3(CCCC(=O)NC3=O)C2)c1 (stereo not drawn)
## Output < 50 µM

## Input Please answer likewise for Cc1sc2c(c1C)C(c1ccc(Cl)cc1)=N[C@@H](CC(=O)NCCCCCCCCCCC(=O)N1CCc3c(ncnc3N3CC4(CC(=O)N(C5CCC(=O)NC5=O)C4=O)C3)C1)c1nnc(C)n1-2 (stereo partly drawn)
## Output < 50 µM

## Input Please answer likewise for COC(=O)c1cccc(CN2CC3(CC(=O)N(C4CCC(=O)NC4=O)C3=O)C2)c1 (stereo not drawn)
## Output 50 to 100 µM

## Input Please answer likewise for Cn1c(C(=O)OC(C)(C)C)cc2c(N3CCC4(CCCC(=O)NC4=O)C3)ncnc21 (stereo not drawn)
## Output 50 to 100 µM

## Input Please answer likewise for `CC(C)(C)OC(=O)c1cnc(N2CCCC(=O)NC2=O)s1`
## Output 50 to 100 µM

## Input Please answer likewise for CC(C)(C)OC(=O)Nc1cccc(-c2cn(C3CCCC(=O)NC3=O)nn2)c1 (stereo not drawn)
## Output ≥ 100 µM

## Input Please answer likewise for Cc1sc2c(c1C)C(c1ccc(Cl)cc1)=N[C@@H](CC(=O)NCCCCCCCCNC(=O)COc1ccccc1-c1cn(C3CCCC(=O)NC3=O)nn1)c1nnc(C)n1-2 (stereo partly drawn)
## Output < 50 µM

## Input Please answer likewise for C[C@@H]1Cc2c([nH]c3ccccc23)[C@@H](c2cnc(N3CCC(CN(C)CCCCCCCc4cccc5c4n(C)c(=O)n5C4CCCC(=O)NC4=O)CC3)nc2)N1CC(C)(C)F (stereo partly drawn)
## Output < 50 µM
